These data points were gathered from paper PMC3794980.

biological target: DRB1*0701 (Homo sapiens, UniProt P01903+P01911, A100R/A102G/A103Q/D57E/D86V/E43K/F76Y/K127E/L162R/M171V/P40G/Q125H/Q99D/R33Q/R42Y/R54Q/S133A/S66F/T210M/V115G/Y107V/Y59L/Y89S); experiment: biochemical
RECORDED METRIC: log10 IC50 (log10 of the value in µM)
Use the decimal logarithm of IC50 (µM).

Here are 3 molecules together with their reported answers.
compound=CC(C)C[C@H](NC(=O)[C@H](C)NC(=O)[C@H](CCC(=O)O)NC(=O)[C@H](Cc1ccccc1)NC(=O)[C@H](CCC(=O)O)NC(=O)[C@H](CC(C)C)NC(=O)[C@H](Cc1ccc(O)cc1)NC(=O)[C@H](CCCNC(=N)N)NC(=O)[C@H](C)NC(=O)CNC(=O)[C@H](CC(C)C)NC(=O)[C@@H](N)Cc1c[nH]c2ccccc12)C(=O)NCC(=O)N[C@@H](Cc1ccccc1)C(=O)N[C@@H](CC(C)C)C(=O)N[C@@H](CC(N)=O)C(=O)N[C@@H](CCC(=O)O)C(=O)O recorded_value=-1.59
compound=CC[C@H](C)[C@H](NC(=O)[C@H](CC(C)C)NC(=O)[C@H](CC(N)=O)NC(=O)[C@H](Cc1ccc(O)cc1)NC(=O)[C@H](CC(N)=O)NC(=O)[C@@H]1CCCN1)C(=O)N[C@H](C(=O)N[C@@H](CCSC)C(=O)N[C@@H](CC(=O)O)C(=O)N[C@@H](CCC(=O)O)C(=O)N[C@@H](C)C(=O)N[C@@H](Cc1c[nH]cn1)C(=O)N[C@@H](Cc1ccccc1)C(=O)N[C@H](C(=O)N[C@@H](CC(=O)O)C(=O)O)[C@@H](C)O)[C@@H](C)CC recorded_value=0.43
compound=CC[C@H](C)[C@H](NC(=O)[C@H](C)NC(=O)[C@H](CC(N)=O)NC(=O)[C@H](CO)NC(=O)[C@H](C)NC(=O)[C@H](CC(C)C)NC(=O)[C@H](CCCNC(=N)N)NC(=O)[C@H](CC(C)C)NC(=O)[C@H](CC(=O)O)NC(=O)[C@H](CCCNC(=N)N)NC(=O)[C@H](CCCNC(=N)N)NC(=O)[C@H](Cc1c[nH]cn1)NC(=O)[C@H](Cc1ccccc1)NC(=O)[C@H](Cc1ccc(O)cc1)NC(=O)[C@@H](N)CCSC)C(=O)O recorded_value=-1.74

The reported log10 IC50 of the molecule CSCC[C@H](NC(=O)CNC(=O)[C@H](CCCCN)NC(=O)[C@H](CC(C)C)NC(=O)[C@H](CCC(=O)O)NC(=O)[C@H](CC(C)C)NC(=O)[C@H](CCCCN)NC(=O)[C@H](CC(=O)O)NC(=O)[C@H](CCSC)NC(=O)[C@H](CCCCN)NC(=O)[C@H](CC(C)C)NC(=O)[C@H](CCCNC(=N)N)NC(=O)[C@H](CS)NC(=O)[C@H](CCCCN)NC(=O)[C@@H](N)CC(C)C)C(=O)O was 0.33

The reported log10 IC50 of the molecule CC[C@H](C)[C@H](NC(=O)[C@H](Cc1c[nH]c2ccccc12)NC(=O)[C@H](Cc1ccc(O)cc1)NC(=O)CNC(=O)[C@H](CCSC)NC(=O)[C@H](CC(=O)O)NC(=O)[C@H](C)NC(=O)[C@H](Cc1c[nH]cn1)NC(=O)[C@@H](NC(=O)[C@H](C)N)C(C)C)C(=O)N[C@@H](CCC(=O)O)C(=O)N[C@@H](CO)C(=O)N[C@@H](CCC(N)=O)C(=O)N[C@@H](CCCCN)C(=O)N[C@@H](CC(N)=O)C(=O)O was 0.90
